- ASSAY NAME: Cytotoxicity against MDCK cells assessed reduction in cell viability after 48 hrs by MTT assay
- Assay type: cell-based, Canis lupus familiaris
- EXPERIMENTAL SETUP: dog, read-out: CTD50
QUANTITY KIND: CC50 at 48 h (µM)
Record the value in µM, omitting the unit from your answer.

Exercise: Endpoint output: CC50 at 48 h of `CC(=O)C1=C(O)C=C2Oc3c4c(c(C)c(O)c3[C@]2(C)C1=O)OCC4=O` . Value?
Key: 132

Exercise: Endpoint output: CC50 at 48 h of `CC(=O)c1c(O)c(C)c(O)c2c1OC1=CC(=O)/C(=C(/C)NCCCC(=O)O)C(=O)[C@]12C` . Value?
Key: 83.9

Exercise: Endpoint output: CC50 at 48 h of `CC(=O)c1c(O)c(C)c(O)c2c1OC1=Cc3c(c(C)nn3-c3ccccc3)[C@@H](O)[C@@]12C` . Value?
Key: 26.3

Exercise: Endpoint output: CC50 at 48 h of `COc1ccc(-c2cc(-c3c(O)c(C)c(OC)c4c3OC3=Cc5c(c(C)nn5-c5ccccc5)[C@@H](O)[C@@]34C)n[nH]2)cc1` . Value?
Key: 1020

Exercise: Endpoint output: CC50 at 48 h of `CC(=O)c1c(O)c(C)c(O)c2c1OC1=Cc3c(c(C)nn3-c3ccccc3)C(=O)[C@]12C` . Value?
Key: 565

* * *

- ASSAY NAME: Selectivity index, ratio of CTD50 for MDCK cells to ED50 for Influenza A virus (A/California/07/09(H1N1)) pdm09
- Assay type: toxicity, cell-based
- EXPERIMENTAL SETUP: dog, read-out: Selectivity Index
QUANTITY KIND: selectivity ratio
Just the number, please, no unit after it.

The following compounds have reported results that may help.
                                   compound  test_result
0  COc1c(C)c(O)c(C(C)=O)c2c1[C@]1(C)C(=Cc3c(c(C)nn3-c3ccccc3)CC13CO3)O2 (single isomer, unassigned; (+))          2.6
1  COc1c(C)c(O)c(C(=O)/C=C/c2ccc(Cl)cc2)c2c1[C@]1(C)C(=Cc3c(c(C)nn3-c3ccccc3)[C@H]1O)O2          4.6
2  COc1ccc2[nH]c(SCC(=O)c3c(OC)c(C)c(O)c4c3OC3=CC(O)=C(C(C)=O)C(=O)[C@@]34C)nc2c1         23.1

Exercise: Endpoint output: selectivity ratio of `CC(=O)c1c(O)c(C)c(O)c2c1OC1=CC(=O)/C(=C(/C)NCCCC(=O)O)C(=O)[C@]12C` . Value?
Key: 3

* * *

- ASSAY NAME: Selectivity index, ratio of CTD50 for MDCK cells to ED50 for Influenza A virus (A/California/07/09(H1N1)) pdm09
- Type: toxicity, cell-based
- EXPERIMENTAL SETUP: dog, read-out: Selectivity Index
The molecules listed here are annotated with their selectivity ratio.
Just the number, please, no unit after it.

                                   molecule  test_result
0  CC(=O)c1c(O)c(C)c(O)c2c1OC1=Cc3c(c(C)nn3-c3ccccc3)C(=O)[C@@]12C           12
1  CC(=O)C1=C(O)C=C2Oc3c(C(C)=O)c(OC(=O)c4ccccc4Br)c(C)c(OC(=O)c4ccccc4Br)c3[C@@]2(C)C1=O            4

Exercise: Endpoint output: selectivity ratio of `CC(=O)C1=C(O)C=C2Oc3c(C(=O)CSCc4ccccc4)c(O)c(C)c(O)c3[C@@]2(C)C1=O` . Value?
Key: 3
